# composite z-score per entry
assay: small-molecule binders of probe aNOTCH2, primary screen, biochemical, small-molecule microarray, 635/667 nm fluorescence (AID 1121); settings: higher = more signal;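 further: score merges feature fluorescence read at 667 nm with its signal to noise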
observation-type: composite z-score

test_smiles=Cc1ccc(S[C@]2(C(=O)NC3CC3)CC(=O)N(Cc3cc(C(F)(F)F)cc(C(F)(F)F)c3)[C@@H]2c2ccc(CO)cc2)cc1 observation_type="composite z-score" measured=-0.169
test_smiles=CCN1C(C)=C(C(=O)OC)[C@@H](c2ccccc2)N2C(=O)[C@@]3(C(=O)OC)O[C@@]12[C@@H]1C(=O)CCC[C@@H]13 observation_type="composite z-score" measured=-0.195
test_smiles=COc1ccc([Si](C)(C)[C@H]2[C@H](CC(=O)N(CCO)Cc3ccccc3)O[C@@]3(C(=O)N(C)c4ccccc43)[C@@H]2C)cc1 observation_type="composite z-score" measured=-0.155
test_smiles=CO[C@H]1O[C@H](CO)[C@@H](OC(=O)CCc2ccccc2)[C@@H]2OC(=O)[C@H](Cc3cccc(Br)c3)C/C=C/C[C@@H](Cc3cccc(Br)c3)C(=O)O[C@@H]12 observation_type="composite z-score" measured=-0.114
test_smiles=O=C1c2ccccc2[C@](Cc2ccccc2I)(C(=O)NCC(F)(F)F)[C@H](c2ccc(CO)cc2)N1Cc1ccccc1C(F)(F)F observation_type="composite z-score" measured=-0.175
test_smiles=C=C(COC)C(=O)CC[C@H](OC(=O)c1ccccc1-c1ccccc1C(=O)O)c1cccc(OCCO)c1 observation_type="composite z-score" measured=-0.118
test_smiles=CCCC=C(CCC)[C@@H](NS(=O)(=O)c1ccc(-c2ccccc2)cc1)c1ccc(C(=O)OC)cc1 observation_type="composite z-score" measured=-0.0651

---

assay: small-molecule binders of probe aInhba, primary screen, biochemical, small-molecule microarray, 635/667 nm fluorescence (AID 1148); details: higher = more signal;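 further: score merges 667nm spot fluorescence with signal-to-noise for antibody binding to printed compounds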
# composite z-score per entry
observation-type: composite z-score

compound=O=C(NCC(F)(F)F)[C@@H]1c2ccccc2C(=O)N(Cc2ccccc2Cl)[C@H]1c1ccc(CO)cc1 measured=-0.176
compound=C[C@H]1COC(=O)[C@@H]2CCCN2C(=O)[C@@H](C)COC(=O)[C@@H]2CCCN2C1=O measured=0.0086
compound=CCOC(=O)C[C@H]1[C@H](OC(=O)c2ccccc2-c2ccccc2)[C@@H](NC(=O)c2ccc(-c3ccccc3)cc2)c2cc(OCCCO)ccc2N1C(=O)Cc1ccc(OC)cc1 measured=0.038
compound=COc1ccc(-c2cc3c(c(-c4ccccc4)n2)[Si](C(C)C)(C(C)C)O[C@H]3c2ccccc2)cn1 measured=-0.0403
compound=COc1cc2c(cc1OC)CN(C(=O)[C@H]1[C@@H]3C(=O)O[C@@H](c4ccccc4)[C@@H](c4ccccc4)N3[C@@H](c3ccc(O)cc3)[C@]13C(=O)Nc1ccc(C#CC4(O)CCCCCC4)cc13)CC2 measured=0.472
compound="N#Cc1ccc(NN2C(C(O)c3ccc(I)cc3)C=CC3C(=O)N(c4ccccc4)C(=O)C32)cc1 (stereo not given)" measured=-0.0645
compound=O=C(NCc1ccccc1)c1ccc(Br)cc1[N+](=O)[O-] measured=-0.183
compound=Cc1ccc(N2C(=O)c3ccccc3[C@](C)(C(=O)O)[C@@H]2c2ccc(CO)cc2)nc1 measured=-0.267
compound=COC(=O)c1c(CC[C@@H](CO)NC(=O)N[C@H](Cn2cc(-c3cncn3C)nn2)C(C)C)oc(C(C)=O)c1C(=O)OC measured=-0.282
compound=Cc1ccc(S[C@]2(C(=O)NC(C)C)CC(=O)N(Cc3cc(C(F)(F)F)cc(C(F)(F)F)c3)[C@@H]2c2ccc(CO)cc2I)cc1 measured=-0.148
compound=COCCOC(=O)N1C(=O)[C@@]2(c3cc(C#CCCO)ccc31)[C@H](c1ccc(OCCO)cc1)N1[C@H](c3ccccc3)[C@H](c3ccccc3)OC(=O)[C@H]1[C@@H]2C(=O)NC[C@H](O)c1ccccc1 measured=0.0183
compound="O=C1OCC=C[C@H]2OC34C=CCN(Cc5ccccc5)C(=O)[C@H]3N(CCO)C(=O)[C@@H]4[C@@H]12 (stereo not given in full)" measured=-0.307
compound=C/C(=N\O)C(=O)NCCCCCNC(=O)OCc1ccccc1 measured=-0.0471
compound="C=CCC(OC(C)=O)[C@@H]1[C@@H](N(Cc2cccc3ccccc23)C(=O)c2ccc(C)cc2)c2cc(OCCCO)ccc2N1C(=O)c1ccc(-c2ccccc2)cc1 (stereo not given in full)" measured=-0.0719
compound="CCOC(=O)C1=CCC(c2cccc3ccccc23)N(S(=O)(=O)c2ccc(C)cc2)C1 (stereo not given)" measured=0.201

---

assay: small-molecule microarray binders of probe aWnt5a, primary screen, biochemical, biotinylated probe, 635/667 nm fluorescence (AID 1113); conditions: higher = more signal;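 further: score merges 667 nm fluorescence intensity with signal-to-noise per printed feature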
Classification field: enter Criterion met for composite z-score values not below -0.1, Criterion not met for values below it.

molecule=O=C1O[C@@H](c2ccccc2)[C@@H](c2ccccc2)N2[C@@H](c3ccc(O)cc3)[C@]3(C(=O)Nc4ccccc43)[C@@H](C(=O)N3CCN(c4ncccn4)CC3)[C@H]12 label_value="Criterion not met"
molecule=C=C(CCCC)/C(=C/C[C@H](OC(=O)c1ccncc1)c1cccc(OCCO)c1)c1cc(C(=O)OC)ccc1OC label_value="Criterion met"
molecule=COCCOC(=O)N1C(=O)[C@@]2(c3cc(C#CC4=CCCCC4)ccc31)[C@H](c1ccc(O)cc1)N1[C@H](c3ccccc3)[C@H](c3ccccc3)OC(=O)[C@H]1[C@@H]2C(=O)N1CCCCCCC1 label_value="Criterion met"
molecule="COC(=O)c1ccc(C#CC(NP(=O)(c2ccccc2)c2ccccc2)c2ccccc2)cc1 (centres undefined)" label_value="Criterion met"
molecule=CCOC(=O)C[C@H]1[C@H](OC(=O)Cc2ccc3c(c2)OCO3)[C@@H](NC(=O)c2ccc3ccccc3c2)c2cc(OCCCO)ccc2N1C(=O)Cc1ccc(OC)cc1 label_value="Criterion not met"
molecule=C=CCN1C(=O)[C@]2(O[C@H](CCn3cc(CCO)nn3)[C@@H]([Si](C)(C)c3ccc(OC)cc3)[C@@H]2C)c2cc(NC(=O)c3ccc(OC)cc3)ccc21 label_value="Criterion not met"
molecule=C/C(=N\O)C(=O)NCCCCCNC(=O)OCc1ccccc1 label_value="Criterion met"
molecule=NC(=O)NCC#Cc1ccc2c(c1)[C@]1(C(=O)N2)[C@H](C(=O)N2CCCCCCC2)[C@H]2C(=O)O[C@H](c3ccccc3)[C@H](c3ccccc3)N2[C@@H]1c1ccccc1OCCO label_value="Criterion met"
molecule=COc1ccc([Si](C)(C)[C@H]2[C@H](CCO)O[C@@]3(C(=O)N(Cc4ccccc4)c4ccc(N5C(=O)c6cccc7cccc5c67)cc43)[C@@H]2C)cc1 label_value="Criterion not met"
molecule=CC(C)NC(=O)[C@@]1(Cc2ccccc2I)c2ccccc2C(=O)N(C2CCCCC2)[C@H]1c1ccc(CO)cc1 label_value="Criterion met"
molecule=CO[C@@H]1COC(=O)[C@H](C)NC(=O)CC=C[C@@H](C)[C@H](OC)COC(=O)[C@H](C)NC(=O)CC=C[C@H]1C label_value="Criterion met"
molecule=CO[C@H]1COC(=O)[C@H](C)COC(=O)[C@H](Cc2ccccc2)NC(=O)CC=C[C@H]1C label_value="Criterion met"
molecule=C=CC[C@]1(C(N)=O)N=C(c2ccc(OCCCO)cc2)O[C@H]1c1ccccc1CN=[N+]=[N-] label_value="Criterion not met"
molecule=COC(=O)[C@H]1[C@@H]2COc3ccccc3[C@H]2N[C@H]1C(=O)OC label_value="Criterion met"

---

molecular target: Focal adhesion kinase 1 (Homo sapiens) (UniProt Q05397); experiment: small-molecule microarray binders of FAK, primary screen, biochemical, 635/667 nm fluorescence, BSA, DTT (AID 1130); details: PTK2 binding, 635 nm fluorescence, higher = more signal;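 further: composite of spot emission at 667 nm and signal to noise over triplicate slides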
Sequence (Q05397 whole entry, looked up): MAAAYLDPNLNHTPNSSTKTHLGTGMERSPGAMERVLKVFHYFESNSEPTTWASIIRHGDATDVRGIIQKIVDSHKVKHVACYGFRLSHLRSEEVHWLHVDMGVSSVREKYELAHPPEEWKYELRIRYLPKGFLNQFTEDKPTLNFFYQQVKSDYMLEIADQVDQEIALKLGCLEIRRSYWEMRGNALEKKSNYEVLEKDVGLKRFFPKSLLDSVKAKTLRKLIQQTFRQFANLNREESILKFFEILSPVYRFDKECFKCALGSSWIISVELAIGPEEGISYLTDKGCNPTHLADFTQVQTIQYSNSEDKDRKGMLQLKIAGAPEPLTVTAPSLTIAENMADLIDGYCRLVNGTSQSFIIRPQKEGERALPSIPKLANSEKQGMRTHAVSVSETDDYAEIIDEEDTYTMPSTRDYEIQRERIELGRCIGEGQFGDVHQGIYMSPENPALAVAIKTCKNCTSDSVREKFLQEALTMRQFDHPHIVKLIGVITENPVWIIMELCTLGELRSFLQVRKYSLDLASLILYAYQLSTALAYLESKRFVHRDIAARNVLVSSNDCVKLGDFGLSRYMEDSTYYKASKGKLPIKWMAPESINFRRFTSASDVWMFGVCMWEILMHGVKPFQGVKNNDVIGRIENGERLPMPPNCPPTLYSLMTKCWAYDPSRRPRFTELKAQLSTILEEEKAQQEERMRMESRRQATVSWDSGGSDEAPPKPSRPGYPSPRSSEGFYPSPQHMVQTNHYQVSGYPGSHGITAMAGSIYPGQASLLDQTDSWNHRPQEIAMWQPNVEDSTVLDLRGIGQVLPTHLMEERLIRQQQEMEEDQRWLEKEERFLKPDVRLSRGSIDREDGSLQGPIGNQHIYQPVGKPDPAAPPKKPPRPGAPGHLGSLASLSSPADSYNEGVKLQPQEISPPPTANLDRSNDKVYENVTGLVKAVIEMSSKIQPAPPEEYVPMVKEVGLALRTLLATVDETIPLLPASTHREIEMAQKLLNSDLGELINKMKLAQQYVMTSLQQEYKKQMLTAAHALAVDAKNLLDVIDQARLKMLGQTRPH
Classification field: enter T for composite z-score values not below -0.08, F for values below it.

compound=[N-]=[N+]=NCc1ccccc1[C@H]1OC(c2ccc(OCCCO)cc2)=N[C@@]1(Cc1ccccc1N=[N+]=[N-])C(=O)NCc1ccccc1 label_value=T
compound=COCCOC(=O)N1C(=O)[C@@]2(c3cc(C#CCC(C(=O)OC)C(=O)OC)ccc31)[C@H](c1ccccc1OCCO)N1[C@H](c3ccccc3)[C@H](c3ccccc3)OC(=O)[C@H]1[C@@H]2C(=O)N1CCCCCCC1 label_value=T
compound=CO[C@H]1COC(=O)[C@@H](Cc2ccccc2)NC(=O)[C@@H](C)COC(=O)CC=C[C@@H]1C label_value=F
compound=COc1ccc(C(=O)Nc2ccc(CN3C(=O)[C@]4(O[C@H](CCn5cc(CCO)nn5)[C@@H]([Si](C)(C)c5ccc(OC)cc5)[C@@H]4C)c4ccccc43)cc2)cc1 label_value=T
compound=CCN1C(C)=C(C(=O)OC)[C@@H](c2ccccc2)N2C(=O)[C@@]3(C(=O)OC)O[C@@]12[C@@H]1C(=O)N(C)C(=O)[C@@H]13 label_value=F
compound=Cc1ccc(S[C@]2(C(=O)NCCCN(C)C)CC(=O)N(C3CCCCC3)[C@@H]2c2ccc(CO)cc2I)cc1 label_value=F
compound=Cc1ccc(N2C(=O)c3ccccc3[C@](C)(C(=O)NCC(C)C)[C@@H]2c2ccc(CO)cc2)nc1 label_value=F
compound=COc1ccc([C@H]2C[C@H]3C(Br)=C[C@]2(OC)C(=O)[C@]32CO2)cc1 label_value=F
compound="C=CCC(OC(C)=O)[C@@H]1[C@@H](N(Cc2cccc3ccccc23)C(=O)c2ccc(C)cc2)c2cc(OCCCO)ccc2N1C(=O)c1ccc(-c2ccccc2)cc1 (some centres undefined)" label_value=T
compound=CO[C@@H]1COC(=O)[C@H](C)NC(=O)CC=C[C@@H](C)[C@H](OC)COC(=O)[C@H](C)NC(=O)CC=C[C@H]1C label_value=T
compound=C=CCc1cccc([C@H]2N[C@H](C(=O)O)CC[C@@H]2C)c1 label_value=T
compound=O=C(CS)NCCCCCNC(=O)[C@H]1C[C@H]2C(=O)N3CCC[C@H]3C(=O)N2[C@H]1c1ccc(O)cc1 label_value=F

Recorded values, source PubChem BioAssay.
